# Tested on: EGFR (human), P00533 [L858R]
# Protocol: KINOMEscan competition binding
# Test parameters: compound 10.0 µM
Quantity: kinase still bound, per cent of control (%)
Give bare numbers, in %.

Sample records with kinase still bound, per cent of control:
COc1cc2ncnc(-n3nc(-c4ccccn4)nc3N)c2cc1OC = 55
O=C(NOC[C@H](O)CO)c1ccc(F)c(F)c1Nc1ccc(I)cc1F = 79
O=c1cc(N2CCOCC2)oc2c(-c3cccc4c3sc3ccccc34)cccc12 = 89
COc1cc(C(=O)NC2CCN(C)CC2)ccc1Nc1ncc2c(n1)N(C1CCCC1)CCC(=O)N2C(C)C = 100

Kindly consider the entry below.
IN: Report kinase still bound, per cent of control for C[C@@H](Oc1cc(-n2cnc3ccc(CN4CCN(C)CC4)cc32)sc1C(N)=O)c1ccccc1C(F)(F)F please.
OUT: 86

###

# Target desc: UniProtKB O15264
# Sequence (O15264 whole entry, looked up): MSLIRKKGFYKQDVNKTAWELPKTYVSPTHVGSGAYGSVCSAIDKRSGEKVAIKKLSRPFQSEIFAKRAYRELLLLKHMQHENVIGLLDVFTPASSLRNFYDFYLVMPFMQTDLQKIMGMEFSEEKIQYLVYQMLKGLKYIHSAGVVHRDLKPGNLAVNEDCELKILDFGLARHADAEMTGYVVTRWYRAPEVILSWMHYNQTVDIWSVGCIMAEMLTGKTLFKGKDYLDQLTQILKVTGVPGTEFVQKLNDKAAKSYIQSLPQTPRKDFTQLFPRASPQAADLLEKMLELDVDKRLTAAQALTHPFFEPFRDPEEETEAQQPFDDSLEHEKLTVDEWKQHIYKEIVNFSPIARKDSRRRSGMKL
# Protocol: KINOMEscan competition binding
# Test parameters: compound 10.0 µM
Label 1.0 when kinase still bound, per cent of control is strictly below 80%; at or above that, label 0.0.

Field: example entries. Status: answers known.
COc1cc(N2CCC(C(N)=O)CC2)ccc1Nc1nc(N)c(Cl)c(Nc2ccccc2S(=O)(=O)C(C)C)n1 = 0.0
N#C/C(=C1/Nc2ccccc2S1)c1ccnc(NCCc2cccnc2)n1 = 1.0
N#Cc1cc(-c2ccnc(Nc3ccc(-n4cnc(-c5cccnc5)n4)cc3)n2)cc(N2CCOCC2)c1 = 1.0
CNC(=O)Nc1ccc(-c2nc(N3CC4CCC(C3)O4)c3cnn(C4CCC5(CC4)OCCO5)c3n2)cc1 = 1.0

With those in mind, consider the next compound.
IN: Take the compound CCCS(=O)(=O)Nc1ccc(F)c(C(=O)c2c[nH]c3ncc(Cl)cc23)c1F and say whether its kinase still bound, per cent of control is less than 80%.
OUT: 0.0

###

# Tested on: RET (human), P07949 [V804L]
# Sequence (P07949 whole entry V804L, looked up): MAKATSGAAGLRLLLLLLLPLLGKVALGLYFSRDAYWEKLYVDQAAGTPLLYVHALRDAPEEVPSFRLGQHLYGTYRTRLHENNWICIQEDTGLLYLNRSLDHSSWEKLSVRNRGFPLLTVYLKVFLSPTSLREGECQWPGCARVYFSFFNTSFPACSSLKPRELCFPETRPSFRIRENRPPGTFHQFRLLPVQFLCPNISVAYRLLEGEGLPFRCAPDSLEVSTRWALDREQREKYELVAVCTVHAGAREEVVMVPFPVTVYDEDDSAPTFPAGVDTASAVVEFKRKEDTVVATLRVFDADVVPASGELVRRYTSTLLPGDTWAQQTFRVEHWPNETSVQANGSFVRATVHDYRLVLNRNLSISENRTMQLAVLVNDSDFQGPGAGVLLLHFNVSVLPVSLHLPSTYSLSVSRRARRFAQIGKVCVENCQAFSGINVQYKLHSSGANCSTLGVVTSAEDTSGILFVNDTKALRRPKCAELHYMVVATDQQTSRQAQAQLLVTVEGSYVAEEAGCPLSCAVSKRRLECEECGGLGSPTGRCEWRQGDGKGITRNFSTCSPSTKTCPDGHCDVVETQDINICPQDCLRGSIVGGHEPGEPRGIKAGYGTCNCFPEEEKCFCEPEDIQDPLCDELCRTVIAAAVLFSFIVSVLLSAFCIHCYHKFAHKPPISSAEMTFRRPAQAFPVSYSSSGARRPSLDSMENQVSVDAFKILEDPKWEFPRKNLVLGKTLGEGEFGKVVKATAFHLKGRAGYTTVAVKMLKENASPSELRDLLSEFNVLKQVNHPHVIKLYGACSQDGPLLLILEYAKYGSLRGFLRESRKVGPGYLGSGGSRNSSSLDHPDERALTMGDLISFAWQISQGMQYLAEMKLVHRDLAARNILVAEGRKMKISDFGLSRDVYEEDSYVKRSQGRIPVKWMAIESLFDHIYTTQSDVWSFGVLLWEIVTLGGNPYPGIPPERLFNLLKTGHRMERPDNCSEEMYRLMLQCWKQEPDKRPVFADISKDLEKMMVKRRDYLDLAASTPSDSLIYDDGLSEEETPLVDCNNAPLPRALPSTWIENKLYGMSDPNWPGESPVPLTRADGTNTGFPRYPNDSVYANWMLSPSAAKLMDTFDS
# Protocol: KINOMEscan competition binding
# Test parameters: compound 10.0 µM
Label t when kinase still bound, per cent of control is strictly below 80%; at or above that, label f.

CCN1CCN(Cc2ccc(Nc3ncc4c(n3)N(C)c3ccccc3C(=O)N4C)cc2C(F)(F)F)CC1 = t
O=c1[nH]c2ccccc2n1C1CCN(Cc2ccc(-c3nc4cc5[nH]cnc5cc4nc3-c3ccccc3)cc2)CC1 = f

IN: Take the molecule COc1cc(C(=O)NC2CCN(C)CC2)ccc1Nc1ncc2c(n1)N(C1CCCC1)CCC(=O)N2C(C)C and say whether its kinase still bound, per cent of control is less than 80%.
OUT: t

###

# Target desc: IKBKB (human) (UniProt O14920)
# Sequence (O14920 whole entry, looked up): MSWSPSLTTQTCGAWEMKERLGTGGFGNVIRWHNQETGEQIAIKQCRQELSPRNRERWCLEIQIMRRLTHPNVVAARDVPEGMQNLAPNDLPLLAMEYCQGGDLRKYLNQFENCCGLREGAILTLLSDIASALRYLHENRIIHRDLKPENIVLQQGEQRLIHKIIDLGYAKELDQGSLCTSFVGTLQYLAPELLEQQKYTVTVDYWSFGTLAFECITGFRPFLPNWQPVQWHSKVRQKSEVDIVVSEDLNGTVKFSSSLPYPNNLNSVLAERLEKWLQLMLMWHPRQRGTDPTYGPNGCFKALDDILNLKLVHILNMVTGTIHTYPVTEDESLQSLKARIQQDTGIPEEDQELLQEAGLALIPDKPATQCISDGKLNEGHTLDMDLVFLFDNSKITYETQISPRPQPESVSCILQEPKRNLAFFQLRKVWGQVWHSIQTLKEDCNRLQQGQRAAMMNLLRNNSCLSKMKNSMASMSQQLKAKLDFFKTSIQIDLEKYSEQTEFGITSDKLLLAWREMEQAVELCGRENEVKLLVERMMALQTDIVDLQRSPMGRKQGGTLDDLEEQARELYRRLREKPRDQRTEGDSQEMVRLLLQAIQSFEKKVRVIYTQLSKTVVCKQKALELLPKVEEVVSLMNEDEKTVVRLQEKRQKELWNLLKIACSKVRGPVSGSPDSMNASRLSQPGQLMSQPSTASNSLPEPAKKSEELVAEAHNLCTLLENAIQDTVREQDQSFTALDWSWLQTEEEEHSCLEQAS
# Protocol: KINOMEscan competition binding
# Test parameters: compound 10.0 µM
Label Condition met when kinase still bound, per cent of control is strictly below 90%; at or above that, label Condition not met.

Field: example entries. Status: answers known.
CCCS(=O)(=O)Nc1ccc(F)c(C(=O)c2c[nH]c3ncc(Cl)cc23)c1F = Condition met
COc1cc(C)c(Sc2cnc(NC(=O)c3ccc(CNC(C)C(C)C)cc3)s2)cc1C(=O)N1CCN(C(C)=O)CC1 (stereo not drawn) = Condition not met
N#Cc1cc(-c2ccnc(Nc3ccc(-n4cnc(-c5cccnc5)n4)cc3)n2)cc(N2CCOCC2)c1 = Condition met
C=CC(=O)Nc1ccc(C(=O)c2sc(Nc3ccc(N4CCN(C)CC4)cc3OC)nc2N)cc1 = Condition met
CCN1CCN(Cc2ccc(NC(=O)c3ccc(C)c(/C=C/c4cnc5[nH]ccc5c4OC)c3)cc2C(F)(F)F)CC1 = Condition met

IN: Take the compound CC(=O)c1c(C)c2cnc(Nc3ccc(N4CCNCC4)cn3)nc2n(C2CCCC2)c1=O and say whether its kinase still bound, per cent of control is less than 90%.
OUT: Condition met

IN: Next up: COc1cc2c(Nc3ccc(NC(=O)c4ccccc4)cc3)ncnc2cc1OCCCN1CCOCC1
OUT: Condition not met

Data origin: the kinase profiling compilation of Christmann-Franck et al. (2016)
